Each entry below lists one item and its recorded Potency value.
Target: Glucocorticoid receptor (Homo sapiens)
Assay: GR-GFP Redistribution (AID 450); note: potency is the fitted concentration of half-maximal effect
Settings: U2OS GR-GFP nuclear translocation, laser cytometry, 2 h
Calls of active or inactive are those of the source.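 Rule for the calls: active = compounds whose dose series gives a full or clear partial fitted curve of increased nuclear translocation; inconclusive = weak partial curve or effect only at the top dose; inactive = no dose-dependent translocation response.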
Measure name: Potency

- FC(F)(F)c1ccccc1-c1nccc(-n2ccnc2)n1: > 46 µM (inactive)
- Cc1cccc(CNc2ncncc2-c2ccccc2C(F)(F)F)c1: > 46 µM (inactive)
- COc1cccc(Nc2ncc3ncc(=O)n(C)c3n2)c1: > 9.22 µM (inactive)
- O=c1c(-c2cccs2)nc2cnc(N3CCNCC3)nc2n1C1CC1: > 9.22 µM (inactive)
- COc1cccc(Nc2ncc3nc(CCc4ccccc4)c(=O)n(CCC#N)c3n2)c1: > 9.22 µM (inactive)
- COc1ccccc1CNc1ncncc1-c1ccccc1C: > 46 µM (inactive)

----------
Experiment: Stat Signaling Pathway (AID 446);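 note: ME-180 cervical cancer cells given 40 pM IL-6 alongside compound; SIE-controlled beta-lactamase reporter measured as 460/530 nm FRET emission ratio; % is set by controls: 0 for no effect and ±100 for the full control effect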
Details: ME-180 SIE beta-lactamase reporter, IL-6 stimulated, 5 h; at 7.69 µM (top of the series) unless noted
Records with an inconclusive call do not appear. The source made the active and inactive calls. Calls come from the whole dose curve; as a rule, active = well fitted curve in either direction with a large enough effect (not every such curve was filed as active); inconclusive = small, poorly fitted or top-dose-only effect, or another doubt; inactive = flat fitted curve, though single readings scatter.
Labels: true = active, false = inactive

* Cc1noc(C)c1C(=O)N1CCC2(CC1)CN(Cc1cc(C(F)(F)F)cc(C(F)(F)F)c1)C2 | false
* CS(=O)(=O)Nc1cccc(-c2cncnc2Nc2ccccc2)c1 | false
* CN(C)C(=O)c1ccc(-c2ccc3ncnc(N4CCOCC4)c3c2)cc1 | false
* CC(=O)NCCNc1nc(-c2c(C)noc2C)nc2ccccc12 | false
* O=S(=O)(c1ccccc1)N1CCC2(CCCN(c3ccccc3)C2)CC1 | false
* COCCn1c(=O)c(-c2cc(F)cc(F)c2)nc2cnc(OCc3ccccc3)nc21 | false
* CN(C)c1ncnc2ccc(-c3ccc4c(c3)OCO4)cc12 | false
* COCCn1c(=O)c(-c2ccc(F)cc2)nc2cncnc21 | false
* Cn1c(=O)c(-c2ccc(Cl)cc2)nc2cnc(OCc3ccccc3)nc21 | false
* Cn1c(=O)c(-c2ccc(F)cc2)nc2cnc(Oc3ccccc3)nc21 | false
* CC(C)NC(=O)N1CCC2(CC1)CCN(C(=O)c1cnccn1)CC2 | false
* N#Cc1cccc(-c2nccc(NCc3cccnc3)n2)c1 | false
* Cn1c(=O)cnc2cnc(Nc3ccccc3)nc21 | false
* CC(=O)N(CC(O)CN(C(C)=O)c1c(I)c(C(=O)NC[C@@H](O)CO)c(I)c(C(=O)NC[C@@H](O)CO)c1I)c1c(I)c(C(=O)NC[C@@H](O)CO)c(I)c(C(=O)NC[C@@H](O)CO)c1I | false
* O=C(c1ccncc1)N1CCC2(CCCN(Cc3ccccc3)C2)CC1 | false
* Cc1cnc(CNc2ncncc2-c2ccccc2CN(C)C)cn1 | false
* COc1ccc(Oc2ncc3nc(-c4ccc(Cl)cc4)c(=O)n(C4CC4)c3n2)cc1 | false
* COc1ncc2nc(-c3cn(C)c4ccccc34)c(=O)n(CCC#N)c2n1 | false
* c1ccc(Nc2ncnc3ccc(-c4ccc5c(c4)OCO5)cc23)cc1 | false
* c1ccc2c(NC3CC3)nc(-c3ccoc3)nc2c1 | false
* Cc1cnc(CNc2ncncc2-c2ccccc2C)cn1 | false
* COc1ccc(-c2nc3cnc(N(C)C)nc3n(-c3ccccc3)c2=O)cc1 | false
* CNc1ncnc2ccc(-c3ccccc3OC)cc12 | false
* COc1ccc(NC(=O)N2CCC3(CC2)CCN(C(=O)c2cccc(F)c2)CC3)cc1 | false
* COCC(=O)N1CCC2(CC1)CCN(c1cccc(-c3ccccc3)c1)CC2 | false
* N#CCCn1c(=O)cnc2cnc(N3CCNCC3)nc21 | false
* COc1ccc(C(=O)N2CCC[C@@]3(CCN(C(=O)Nc4cccc(C#N)c4)C3)C2)cc1 | false
* Cc1cnc(CNc2cc(-c3c(C)noc3C)ncn2)cn1 | false
* COc1ccccc1CN1CCCC2(CCN(C(=O)c3c(C)noc3C)CC2)C1 | false
* COc1ccc(-c2nc3cnc(N4CCOCC4)nc3n(CCc3ccccc3)c2=O)cc1 | true
* CN(Cc1ccco1)c1ccnc(-c2ccccc2C(F)(F)F)n1 | false
* COc1ccc2[nH]cc(CCNc3ccnc(-c4c(C)noc4C)n3)c2c1 | false
* COc1cccc(Nc2ncc3nc(CCc4ccccc4)c(=O)n(C4CC4)c3n2)c1 | false
* CC(C)NC(=O)N1CC[C@@]2(CCCN(S(=O)(=O)c3ccccc3)C2)C1 | false
* COc1ccc(C(=O)N2CCC[C@@]3(CCN(C)C3)C2)cc1 | false
* COc1ccccc1-c1nc(N2CCOCC2)c2ccccc2n1 | false
* COCC(=O)N1CCC2(CCCN(c3cccc(-c4ccccc4)c3)C2)CC1 | false
* CN(C)C(=O)c1ccc(-c2nccc(NCc3ccccc3)n2)cc1 | false
* Cc1nc2cnc(Nc3ccccc3)nc2n(C[C@H]2CCCO2)c1=O | false
* CC(=O)NCCNc1ncncc1-c1ccccc1C(F)(F)F | false
* O=c1c(-c2ccc(F)cc2)nc2cnc(Oc3cccc(Cl)c3)nc2n1C[C@H]1CCCO1 | false
* Cc1cccc(CNc2ncncc2-c2ccccc2Cl)c1 | false
* CC(=O)N1CCC2(CC1)CCN(c1ccccn1)CC2 | false
* CC(=O)N1CCC2(CC1)CCN(c1ncccn1)CC2 | false

----------
Assay: qHTS Assay for Lipid Storage Modulators (AID 1519)
Settings: Drosophila S3 cells, BODIPY lipid droplet/cell ratio, laser cytometry; measured here: lipid channel max response; cells loaded with oleic acid
Records with an inconclusive call do not appear.
Reported values of max response for individual entries
Measure name: max response (%)

* Clc1ccccc1-c1nc(NC2CCNCC2)c2ccccc2n1 | 17.6
* COc1ccc(/C=C/C(=O)O)cc1OC | 26.5
* O=C(c1csnn1)N1CCC2(CC1)CCN(C(c1ccccc1)c1ccccc1)CC2 | 2.32
* CC(C)(O/N=C(\C(=O)N[C@@H]1C(=O)N2C(C(=O)[O-])=C(C[n+]3ccccc3)CS[C@@H]12)c1csc(N)n1)C(=O)O | -1.95
* COS(C)(=O)=O | 4.2
* COc1cc(=O)n(C)c2c(OC[C@@H](O)C(C)(C)O)cccc12 | -18.8
* COc1ccc(NC(=O)N2CCCC3(CCN(S(=O)(=O)c4ccccc4)CC3)C2)cc1 | 10.9
* COc1ccccc1CN1CC[C@@]2(CCCN(C(=O)c3cc(C(F)(F)F)cc(C(F)(F)F)c3)C2)C1 | 7.48
* COCCNc1nc(-c2cccc(OC)c2)nc2ccccc12 | -0.48
* COc1ccc(NC(=O)N2CCC3(CC2)CCN(S(C)(=O)=O)CC3)cc1 | 28.9
* CC(=O)N1CCC2(CCCN(c3ccncc3)C2)CC1 | 7.47
* O=C(c1cccc(F)c1)N1CCC2(CCN(Cc3nccs3)CC2)CC1 | 20.4
* COc1ccc2[nH]cc(CCNc3ncnc4ccc(-c5ccccc5C#N)cc34)c2c1 | -10.8
* COc1ccccc1CN1CCCC2(CCN(C(=O)c3cnccn3)CC2)C1 | 0.432
* C#C[C@]1(O)CCC2C3CCC4=C(CCC(=O)C4)C3CC[C@@]21C (stereo partly specified) | 3.32
* COC(=O)CCCOc1ccc(Cl)cc1Cl | 23
* CN[C@@H]1[C@H](O[C@@H]2O[C@H](CO)[C@@H](N)[C@H](O)[C@@H]2O)O[C@H]2C[C@@H](N)[C@@H](O[C@H]3[C@@H](O)[C@H](O)[C@H](N)C[C@@H]3N)O[C@H]2[C@H]1O | -11.9
* O[C@@](CCN1CCCCC1)(c1ccccc1)C1CCCCC1 | -19.7
* COc1ccc2[nH]cc(CCNc3ncnc4ccc(-c5ccc(C(=O)N(C)C)cc5)cc34)c2c1 | -23.3
* CS(=O)(=O)N1CCC2(CCN(c3ccncc3)CC2)CC1 | 13.6
* COc1ccc(-c2nc3cnc(Nc4cccc(OC)c4)nc3n(CCC#N)c2=O)cc1 | -2.36

----------
Assay: AP1 Signaling Pathway (AID 357);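 note: ME-180 reporter cells stimulated with EGF at its EC50 level; % is set by controls: 0 for no effect and ±100 for the full control effect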
Settings: ME-180 (cervical carcinoma) AP-1-bla reporter, EGF-induced, beta-lactamase ratio, 5 h; at 7.69 µM (top of the series) unless noted
Inconclusive results are not listed.
activity change, negative = inhibition by entry:
Measure name: activity change, negative = inhibition (%)

• O=C(c1csnn1)N1CCC2(CC1)CN(c1cccc(-c3ccccc3)c1)C2 = -15.1
• COCC(=O)N1CCC2(CCCN(Cc3ccccc3OC)C2)CC1 = -2.02
• N#Cc1ccccc1-c1ccc2ncnc(NCCN3CCOCC3)c2c1 = 1.67
• COc1ccccc1-c1cc(N(C)Cc2ccco2)ncn1 = 28.4
• COc1cccc(Cn2c(=O)c(-c3cccs3)nc3cnc(Nc4ccccc4)nc32)c1 = -5.18
• CNc1ncnc2ccc(-c3cccc(OC)c3)cc12 = -19.8

----------
Experiment: NFAT Signaling Pathway (AID 444);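 note: carbachol stimulus at about its EC50 of 1 µM final; % is set by controls: 0 for no effect and ±100 for the full control effect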
Conditions: Jurkat NFAT-bla M1, carbachol, beta-lactamase ratio, 5 h; at 7.69 µM (top of the series) unless noted
Results filed as inconclusive are left out. The source made the active and inactive calls. Calls follow the shape of the dose curve; as a rule, active = well fitted curve in either direction with a large enough effect (not every such curve was filed as active); inconclusive = small, poorly fitted or top-dose-only effect, or another doubt; inactive = flat fitted curve, though single readings scatter.
Measure name: activity change, negative = inhibition

* COc1ccc(C(=O)N2CCC[C@@]3(CCN(C(=O)NC(C)C)C3)C2)cc1 | 8.55% (inactive)
* Cn1c(=O)c(-c2cc(F)cc(F)c2)nc2cnc(Nc3ccccc3)nc21 | 6.94% (inactive)
* Cn1cccc1C(=O)N1CCC[C@@]2(CCN(Cc3nccs3)C2)C1 | 12.5% (inactive)
* CC(=O)N1CCC2(CCCN(Cc3cc(C(F)(F)F)cc(C(F)(F)F)c3)C2)CC1 | 23.8% (inactive)
* FC(F)(F)c1ccccc1-c1cc(NCc2cccnc2)ncn1 | 4.08% (inactive)
* CCNc1ncc2nc(-c3ccc(F)cc3)c(=O)n(Cc3ccc(F)cc3)c2n1 | 18.8% (inactive)
* COCCn1c(=O)c(-c2ccccc2)nc2cnc(N3CCOCC3)nc21 | 18.3% (inactive)
* COCCn1c(=O)c(-c2ccc(Cl)cc2)nc2cnc(N(C)C)nc21 | -3.15% (inactive)
* CN(C)C(=O)c1ccc(-c2cc(NCc3cccs3)ncn2)cc1 | 3.58% (inactive)
* COc1c2ccoc2nc2c(OC)c(OC[C@H](O)C(C)(C)O)ccc12 | 15.7% [at 17.2 µM] (inactive)
* Cc1cccc(CNc2cc(-c3ccc(N(C)C)cc3)ncn2)c1 | -5.57% (inactive)
